test system: U251 CNS
Your response should consist of one outcome taken from 1 (yes) for active, 0 (no) for inactive

Examples with answers:
NCCN.NCCN.O=C([O-])CCl.O=C([O-])CCl.[Co+3].[O-][Cl+3]([O-])([O-])[O-]	0 (no)
NC1=C(c2nc(-c3ccccc3)cs2)C(c2ccc(Br)cc2)c2c(c3ccccc3oc2=O)O1 (stereo not drawn)	0 (no)
COc1ccc(S(=O)(=O)Nc2cc(/C=C\c3cc(OC)c(OC)c(OC)c3)ccc2OC)cc1	1 (yes)
CNC(=O)CC1NC(=O)c2csc(n2)-c2ccc(-c3nc(C4=NC(C(=O)N5CCCC5C(N)=O)CO4)cs3)nc2-c2csc(n2)-c2csc(n2)C(C(C)C)NC(=O)CNC(=O)c2csc(n2)C(C(C)C)NC(=O)c2nc1sc2C (stereo not drawn)	0 (no)
OC(CNCC1CCCO1)Cn1c2ccc(Cl)cc2c2cc(Cl)ccc21 (stereo not drawn)	0 (no)

Check the results log: what was the call for CCCCCCCCCCCCOC1C(C(COC2OC(C3COC(C)(C)O3)C3OC(C)(C)OC23)NC(=O)NS(=O)(=O)c2ccccc2)OC2OC(C)(C)OC21 (stereo not drawn) ?
0 (no)

Which result was noted for this compound in the test: "Oc1ccccc1CNCC12CC3CC(CC(C3)C1)C2"
0 (no)

Which outcome did this test record for the compound "COC(=O)C1=C(C(=O)OC)SC(=C(Cl)C(=S)Nc2ccccc2O)S1" ?
0 (no)

---

tested on: UACC-62 melanoma; assay: NCI tumour cell line growth inhibition, 48 h
Metric: TGI (µM)
API: value field is a number in µM; no unit string.

OC(c1cc(-c2ccc(Cl)cc2)nc2ccccc12)C1CCCCN1 (stereo not given)	3.43
CCN(CC)CCn1c2ccccc2c(=O)c2c(O)ccc(O)c21	52.8

Consider the additional molecule presented here.
Specify TGI for "S=c1ssc(Oc2ccccc2)c1Cl" , system UACC-62 melanoma.
26.9

---

# Lookup of reported TGI keyed by entry
tested on: KM12 colon; experiment: NCI tumour cell line growth inhibition, 48 h

Completed entries (count: 3):
Oc1ccc(Cc2nccc3cc(O)c(O)cc23)cc1O	> 100 µM
O=C1CCCC1C(O)(C(F)(F)F)C(F)(F)F (stereo not given)	> 100 µM
CC1=NN(C(=O)CC(=O)Nc2ccc(C)cc2)C(=O)C1N=Nc1ccc(S(=O)(=O)c2ccc(N=NC3C(=O)N(C(=O)CC(=O)Nc4ccc(C)cc4)N=C3C)cc2)cc1 (stereo not given)	> 100 µM

System KM12 colon. Read-out TGI. Item COC(=O)C(Cc1ccc(Oc2cc(CC(NC(=O)c3ccccc3)C(=O)OC)ccc2OC)cc1)NC(=O)c1ccccc1 (stereo not given) . Report value.
> 100 µM

Fill in: TGI on KM12 colon, entry "O=P1(c2ccccc2)C(c2ccccc2)=CC=C1c1ccccc1"
50.1 µM

---

tested on: HCT-15 colon; experiment: NCI tumour cell line growth inhibition, 48 h
Item-by-item account of TGI

Sample answers from the record:
CCOc1cc2c(cc1O)CC[C@@H]1[C@@H]2CC[C@]2(C)C(N)CC[C@@H]12 (stereo not given in full)	13.8 µM
COC(=O)CN1SC2(SC13C(C)(C)C(=O)C3(C)C)C(C)(C)C(=O)C2(C)C	> 100 µM
Cc1ccc(N2CCC3(CC2)OCCO3)cc1	> 100 µM
Cc1ccc(C)n1-c1ccccc1C1C=CN(C(=O)OC(C)(C)C)C=C1	45.7 µM
COc1cc2c(cc1OCCCCCOc1ccc(-n3c(C)nc4ccccc4c3=O)cc1)N=C[C@@H]1CCCN1C2=O	3.9 µM

Output TGI of "Cc1cc2[nH]c(=O)c3c4ccccc4cn3c2cc1C"
22 µM

Specify reported TGI for the molecule shown: COc1cc2c(cc1OC)[C@H]1C(COC(=O)c3ccccc3)CSC(=Nc3ccccc3)N1CC2 (stereo not given in full)
> 100 µM

Answer with the recorded TGI for the molecule listed here: "Oc1cc(-c2ccc(Cl)cc2)cn2c1nc1ccccc12"
> 100 µM

Let me know recorded TGI for "N#CCCN(c1ccc(C=Nc2ccccc2Cl)cc1)S(=O)(=O)c1ccccc1" , thanks.
> 100 µM

Provide only the value of recorded TGI for "Oc1ccccc1C=Nc1nc(SCc2ccccc2)nc2[nH]ncc12"
> 100 µM

Provenance of the data: PubChem BioAssay (NCI)
